target: SIK1 (Homo sapiens (Human)); test: radiometric protein kinase assay (33PanQinase Activity Assay, ProQinase Free Choice Kinase Assay); assay type: biochemical; details: read-out: SIK1 IC50 rank
MEASURED QUANTITY: IC50

COMPOUND	RESULT
Cc1nc(Nc2ncc(C(=O)Nc3ccc(F)c(Cl)c3)s2)cc(N2CCN(CCO)CC2)n1 [Compound B9]	> 5 µM

###

Listed next: entries and their corresponding IC50.
target: SIK1 (Homo sapiens (Human), UniProt P57059); assay: radiometric protein kinase assay (33PanQinase Activity Assay, ProQinase Free Choice Kinase Assay); type: biochemical; conditions: indicative IC50, Table 2A; ATP 3.0 uM; read-out: SIK1 IC50 rank
Sequence (P57059 whole entry): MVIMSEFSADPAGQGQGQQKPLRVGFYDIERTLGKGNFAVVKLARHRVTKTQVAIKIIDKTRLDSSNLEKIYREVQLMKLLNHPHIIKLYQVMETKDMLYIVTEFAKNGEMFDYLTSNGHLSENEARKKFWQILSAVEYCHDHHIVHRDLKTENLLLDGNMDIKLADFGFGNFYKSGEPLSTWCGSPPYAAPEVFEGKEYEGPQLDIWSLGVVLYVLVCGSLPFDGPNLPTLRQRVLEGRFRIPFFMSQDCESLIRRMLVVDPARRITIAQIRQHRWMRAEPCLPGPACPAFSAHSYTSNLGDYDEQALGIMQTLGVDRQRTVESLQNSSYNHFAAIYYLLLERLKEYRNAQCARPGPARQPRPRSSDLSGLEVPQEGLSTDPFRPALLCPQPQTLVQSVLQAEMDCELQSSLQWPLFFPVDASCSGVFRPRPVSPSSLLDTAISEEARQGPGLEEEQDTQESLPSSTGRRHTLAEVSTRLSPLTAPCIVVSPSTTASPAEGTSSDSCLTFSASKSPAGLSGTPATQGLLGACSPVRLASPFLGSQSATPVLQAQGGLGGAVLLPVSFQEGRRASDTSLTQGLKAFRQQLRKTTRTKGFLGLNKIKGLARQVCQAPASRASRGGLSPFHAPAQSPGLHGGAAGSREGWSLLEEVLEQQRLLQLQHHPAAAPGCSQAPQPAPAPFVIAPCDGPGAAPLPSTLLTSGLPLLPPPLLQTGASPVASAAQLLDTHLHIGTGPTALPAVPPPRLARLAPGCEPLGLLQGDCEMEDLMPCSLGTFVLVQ

SMILES	IC50
C#Cc1cccc(NC(=O)c2cnc(Nc3cc(N4CCN(CCO)CC4)nc(C)n3)s2)c1	> 1000 nM
Cc1nc(Nc2ncc(C(=O)Nc3ccccc3Cl)s2)cc(N2CCN(CCO)CC2)n1	< 100 nM
Cc1nc(Nc2ncc(C(=O)Nc3c(F)cccc3F)s2)cc(N2CCN(CCO)CC2)n1	< 100 nM
Cc1nc(Nc2ncc(C(=O)Nc3c(F)cccc3Cl)s2)cc(N2CCN(CCO)CC2)n1	< 100 nM
Cc1nc(Nc2ncc(C(=O)Nc3c(F)cccc3Br)s2)cc(N2CCN(CCO)CC2)n1	< 100 nM
Cc1nc(Nc2ncc(C(=O)Nc3c(C)cccc3C)s2)cc(N2CCN(CCO)CC2)n1	< 100 nM
Cc1nc(Nc2ncc(C(=O)Nc3ccccc3S(=O)(=O)C(C)C)s2)cc(N2CCN(CCO)CC2)n1	> 1000 nM
Cc1nc(Nc2ncc(C(=O)Nc3ccc(Br)cc3F)s2)cc(N2CCN(CCO)CC2)n1	< 100 nM

###

target: UniProtKB Q9Y2K2; test: radiometric protein kinase assay (33PanQinase Activity Assay, ProQinase Free Choice Kinase Assay); format: biochemical; conditions: indicative IC50, Table 2A; ATP 1.0 uM; read-out: SIK3 IC50 rank

SMILES	IC50
Cc1nc(Nc2ncc(C(=O)Nc3ccccc3)s2)cc(N2CCN(CCO)CC2)n1	> 1000 nM
Cc1nc(Nc2ncc(C(=O)Nc3c(C)cccc3C)s2)cc(N2CCN(CCO)CC2)n1	< 100 nM
Cc1nc(Nc2ncc(C(=O)Nc3c(F)cccc3Cl)s2)cc(N2CCN(CCO)CC2)n1	< 100 nM
Cc1nc(Nc2ncc(C(=O)Nc3ccc(Br)cc3F)s2)cc(N2CCN(CCO)CC2)n1	> 500 nM
Cc1nc(Nc2ncc(C(=O)Nc3c(F)cccc3Br)s2)cc(N2CCN(CCO)CC2)n1	< 100 nM
C#Cc1cccc(NC(=O)c2cnc(Nc3cc(N4CCN(CCO)CC4)nc(C)n3)s2)c1	> 1000 nM
Cc1nc(Nc2ncc(C(=O)Nc3ccccc3C)s2)cc(N2CCN(CCO)CC2)n1	< 100 nM
Cc1nc(Nc2ncc(C(=O)Nc3ccccc3S(=O)(=O)C(C)C)s2)cc(N2CCN(CCO)CC2)n1	> 1000 nM
Cc1nc(Nc2ncc(C(=O)Nc3ccccc3Cl)s2)cc(N2CCN(CCO)CC2)n1	> 100 nM
Cc1nc(Nc2ncc(C(=O)Nc3ccc(F)cc3)s2)cc(N2CCN(CCO)CC2)n1	> 1000 nM
Cc1nc(Nc2ncc(C(=O)Nc3c(Cl)cccc3Cl)s2)cc(N2CCN(CCO)CC2)n1	< 100 nM
Cc1nc(Nc2ncc(C(=O)Nc3c(F)cccc3F)s2)cc(N2CCN(CCO)CC2)n1	< 100 nM

###

target: UniProtKB P57059; assay: radiometric protein kinase assay (33PanQinase Activity Assay, ProQinase Free Choice Kinase Assay); format: biochemical; conditions: indicative IC50, Table 4; ATP 3.0 uM; read-out: SIK1 IC50 rank
pIC50: −log10 of the molar value.

SMILES	pIC50
Cc1nc(Nc2ncc(C(=O)Nc3c(Cl)cccc3Br)s2)cc(N2CCN(CCO)CC2)n1	> 7.00
CCOc1cccc(Cl)c1NC(=O)c1cnc(Nc2cc(N3CCN(CCO)CC3)nc(C)n2)s1	< 6.00
CC(=O)N1CCN(c2cc(Nc3ncc(C(=O)Nc4c(C)cccc4Cl)s3)nc(C)n2)CC1	> 7.00
Cc1nc(NCCO)cc(Nc2ncc(C(=O)Nc3c(C)cccc3Cl)s2)n1	> 7.00
Cc1nc(Nc2ncc(C(=O)Nc3c(Br)cccc3Br)s2)cc(N2CCN(CCO)CC2)n1	> 7.00
Cc1nc(Nc2ncc(C(=O)Nc3c(C)cccc3Cl)s2)cc(N2CCN(C)CC2)n1	> 7.00
COc1c(F)cccc1NC(=O)c1cnc(Nc2cc(N3CCN(CCO)CC3)nc(C)n2)s1	< 7.00

###

molecular target: SRC (GST-HIS-tag) (Homo sapiens (Human))
Sequence (P12931 whole entry, looked up): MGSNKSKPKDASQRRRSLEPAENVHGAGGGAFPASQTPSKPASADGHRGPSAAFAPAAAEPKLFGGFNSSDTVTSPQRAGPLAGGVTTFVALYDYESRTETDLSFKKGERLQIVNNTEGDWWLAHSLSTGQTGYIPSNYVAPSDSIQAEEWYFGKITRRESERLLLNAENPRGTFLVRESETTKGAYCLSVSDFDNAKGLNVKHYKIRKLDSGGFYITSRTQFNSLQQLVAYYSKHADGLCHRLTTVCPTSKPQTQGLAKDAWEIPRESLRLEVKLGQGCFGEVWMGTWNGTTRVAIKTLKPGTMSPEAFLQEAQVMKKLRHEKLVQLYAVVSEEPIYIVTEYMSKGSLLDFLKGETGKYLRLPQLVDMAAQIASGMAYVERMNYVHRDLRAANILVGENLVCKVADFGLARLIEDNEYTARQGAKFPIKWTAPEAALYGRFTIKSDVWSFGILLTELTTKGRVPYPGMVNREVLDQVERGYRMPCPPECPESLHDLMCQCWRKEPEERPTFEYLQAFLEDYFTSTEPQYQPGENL
pIC50: −log10 of the molar value.

SMILES	pIC50
CCOc1cccc(Cl)c1NC(=O)c1cnc(Nc2cc(N3CCN(CCO)CC3)nc(C)n2)s1	> 7.00

###

biological target: SIK2 (Homo sapiens (Human)); test: radiometric protein kinase assay (33PanQinase Activity Assay, ProQinase Free Choice Kinase Assay); assay type: biochemical; conditions: indicative IC50, Table 2A; ATP 1.0 uM; read-out: SIK2 IC50 rank
Sequence (Q9H0K1 whole entry): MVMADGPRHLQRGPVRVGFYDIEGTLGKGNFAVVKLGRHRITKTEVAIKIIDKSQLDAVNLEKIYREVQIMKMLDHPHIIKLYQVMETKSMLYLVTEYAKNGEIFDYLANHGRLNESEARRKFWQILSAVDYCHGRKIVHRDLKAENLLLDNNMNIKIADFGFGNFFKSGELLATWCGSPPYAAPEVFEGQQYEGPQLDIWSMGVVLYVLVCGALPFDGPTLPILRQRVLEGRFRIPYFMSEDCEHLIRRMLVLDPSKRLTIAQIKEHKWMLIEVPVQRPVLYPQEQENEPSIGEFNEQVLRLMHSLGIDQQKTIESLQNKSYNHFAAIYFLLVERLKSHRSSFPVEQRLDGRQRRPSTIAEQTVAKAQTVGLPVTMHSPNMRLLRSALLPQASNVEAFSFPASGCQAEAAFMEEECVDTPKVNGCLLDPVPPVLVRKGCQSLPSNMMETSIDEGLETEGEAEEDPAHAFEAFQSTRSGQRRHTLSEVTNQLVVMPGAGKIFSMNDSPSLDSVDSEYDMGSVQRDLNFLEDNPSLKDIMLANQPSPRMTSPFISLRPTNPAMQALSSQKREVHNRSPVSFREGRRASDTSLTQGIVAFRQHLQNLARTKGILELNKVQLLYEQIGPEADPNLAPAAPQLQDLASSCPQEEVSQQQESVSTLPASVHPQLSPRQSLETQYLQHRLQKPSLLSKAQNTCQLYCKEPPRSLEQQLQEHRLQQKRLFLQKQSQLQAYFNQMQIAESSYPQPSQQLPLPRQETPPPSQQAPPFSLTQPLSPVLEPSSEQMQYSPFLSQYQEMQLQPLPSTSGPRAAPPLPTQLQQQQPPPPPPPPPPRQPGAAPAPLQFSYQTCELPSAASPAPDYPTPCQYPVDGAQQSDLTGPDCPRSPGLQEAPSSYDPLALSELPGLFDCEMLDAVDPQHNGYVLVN
pIC50: −log10 of the molar value.

SMILES	pIC50
C#Cc1cccc(NC(=O)c2cnc(Nc3cc(N4CCN(CCO)CC4)nc(C)n3)s2)c1	< 7.00
Cc1nc(Nc2ncc(C(=O)Nc3ccc(F)cc3)s2)cc(N2CCN(CCO)CC2)n1	< 7.00
Cc1nc(Nc2ncc(C(=O)Nc3ccccc3Cl)s2)cc(N2CCN(CCO)CC2)n1	> 7.00
Cc1nc(Nc2ncc(C(=O)Nc3ccccc3S(=O)(=O)C(C)C)s2)cc(N2CCN(CCO)CC2)n1	< 7.00
Cc1nc(Nc2ncc(C(=O)Nc3ccc(Br)cc3F)s2)cc(N2CCN(CCO)CC2)n1	< 7.00
Cc1nc(Nc2ncc(C(=O)Nc3c(C)cccc3C)s2)cc(N2CCN(CCO)CC2)n1	> 7.00
Cc1nc(Nc2ncc(C(=O)Nc3c(F)cccc3F)s2)cc(N2CCN(CCO)CC2)n1	> 7.00
Cc1nc(Nc2ncc(C(=O)Nc3ccccc3C)s2)cc(N2CCN(CCO)CC2)n1	> 7.00
Cc1nc(Nc2ncc(C(=O)Nc3c(Cl)cccc3Cl)s2)cc(N2CCN(CCO)CC2)n1	> 7.00
Cc1nc(Nc2ncc(C(=O)Nc3ccccc3)s2)cc(N2CCN(CCO)CC2)n1	< 7.00
Cc1nc(Nc2ncc(C(=O)Nc3c(F)cccc3Br)s2)cc(N2CCN(CCO)CC2)n1	> 7.00
Cc1nc(Nc2ncc(C(=O)Nc3c(F)cccc3Cl)s2)cc(N2CCN(CCO)CC2)n1	> 7.00

###

target: SIK3 (Homo sapiens (Human), UniProt Q9Y2K2); experiment: radiometric protein kinase assay (33PanQinase Activity Assay, ProQinase Free Choice Kinase Assay); format: biochemical; settings: indicative IC50, Table 4; ATP 1.0 uM; read-out: SIK3 IC50 rank
Sequence (Q9Y2K2 whole entry): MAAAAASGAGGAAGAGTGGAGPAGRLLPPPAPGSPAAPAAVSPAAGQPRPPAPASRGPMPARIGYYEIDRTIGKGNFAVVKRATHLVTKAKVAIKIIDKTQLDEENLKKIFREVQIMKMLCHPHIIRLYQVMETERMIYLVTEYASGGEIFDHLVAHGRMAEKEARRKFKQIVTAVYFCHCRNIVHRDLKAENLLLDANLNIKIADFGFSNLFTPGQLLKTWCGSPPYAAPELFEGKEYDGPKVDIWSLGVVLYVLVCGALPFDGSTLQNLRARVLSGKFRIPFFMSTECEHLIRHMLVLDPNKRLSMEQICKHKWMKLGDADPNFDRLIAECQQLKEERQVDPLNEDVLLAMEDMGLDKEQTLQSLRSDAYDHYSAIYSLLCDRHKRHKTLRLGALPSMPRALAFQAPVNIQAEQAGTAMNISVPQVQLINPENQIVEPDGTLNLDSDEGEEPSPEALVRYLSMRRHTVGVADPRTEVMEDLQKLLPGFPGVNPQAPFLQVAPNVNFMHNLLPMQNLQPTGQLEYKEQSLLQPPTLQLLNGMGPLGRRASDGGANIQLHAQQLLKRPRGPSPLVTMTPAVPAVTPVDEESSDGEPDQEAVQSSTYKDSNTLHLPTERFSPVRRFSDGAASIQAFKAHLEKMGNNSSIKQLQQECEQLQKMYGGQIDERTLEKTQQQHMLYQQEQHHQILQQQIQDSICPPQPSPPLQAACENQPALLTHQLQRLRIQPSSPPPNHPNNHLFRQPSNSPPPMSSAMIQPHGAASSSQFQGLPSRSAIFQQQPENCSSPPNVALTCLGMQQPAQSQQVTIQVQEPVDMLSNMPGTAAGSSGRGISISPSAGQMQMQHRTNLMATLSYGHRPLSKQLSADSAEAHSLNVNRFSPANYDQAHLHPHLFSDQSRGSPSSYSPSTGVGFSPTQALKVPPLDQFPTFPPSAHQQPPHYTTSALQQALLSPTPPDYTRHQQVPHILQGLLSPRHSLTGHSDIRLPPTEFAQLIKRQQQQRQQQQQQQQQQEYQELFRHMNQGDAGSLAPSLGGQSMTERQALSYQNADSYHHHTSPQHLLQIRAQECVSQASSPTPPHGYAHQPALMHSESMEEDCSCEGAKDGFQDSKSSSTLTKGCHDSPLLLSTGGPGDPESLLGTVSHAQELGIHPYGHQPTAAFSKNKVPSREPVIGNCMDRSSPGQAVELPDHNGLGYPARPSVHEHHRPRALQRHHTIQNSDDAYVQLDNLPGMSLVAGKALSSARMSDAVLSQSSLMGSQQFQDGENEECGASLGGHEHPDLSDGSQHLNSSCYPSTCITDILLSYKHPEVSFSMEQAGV
pIC50: −log10 of the molar value.

SMILES	pIC50
CC(=O)N1CCN(c2cc(Nc3ncc(C(=O)Nc4c(C)cccc4Cl)s3)nc(C)n2)CC1	> 7.00
Cc1nc(Nc2ncc(C(=O)Nc3c(C)cccc3Cl)s2)cc(N2CCN(C)CC2)n1	> 7.00
COc1c(F)cccc1NC(=O)c1cnc(Nc2cc(N3CCN(CCO)CC3)nc(C)n2)s1	< 6.00
Cc1nc(Nc2ncc(C(=O)Nc3c(Cl)cccc3Br)s2)cc(N2CCN(CCO)CC2)n1	> 7.00
Cc1nc(NCCO)cc(Nc2ncc(C(=O)Nc3c(C)cccc3Cl)s2)n1	> 7.00
Cc1nc(Nc2ncc(C(=O)Nc3c(Br)cccc3Br)s2)cc(N2CCN(CCO)CC2)n1	< 7.00

###

biological target: SIK1 (Homo sapiens (Human), UniProt P57059); assay: radiometric protein kinase assay (33PanQinase Activity Assay, ProQinase Free Choice Kinase Assay); type: biochemical; conditions: indicative IC50, Table 2A; ATP 3.0 uM; read-out: SIK1 IC50 rank

SMILES	IC50
Cc1nc(Nc2ncc(C(=O)Nc3ccccc3)s2)cc(N2CCN(CCO)CC2)n1	> 0.1 µM
Cc1nc(Nc2ncc(C(=O)Nc3c(Cl)cccc3Cl)s2)cc(N2CCN(CCO)CC2)n1	< 0.1 µM
Cc1nc(Nc2ncc(C(=O)Nc3ccccc3C)s2)cc(N2CCN(CCO)CC2)n1	< 0.1 µM
Cc1nc(Nc2ncc(C(=O)Nc3ccc(F)cc3)s2)cc(N2CCN(CCO)CC2)n1	> 0.1 µM
